# Test system: Rattus norvegicus
# assay-procedure: Ulcerogenicity in Wistar albino rat model of carragenan-induced paw edema assessed as leucocytic infiltration in sub mucosa at 50 mg/kg, po by hematoxylin and eosin staining based histopathological analysis
# Type: toxicity, organism-based
# condition-label: in vivo
assay-metric: Activity

1. COc1cc(C2CC(c3ccc(Nc4nc(N5CCCCC5)nc(N5CCCCC5)n4)cc3)=NN2C(C)=O)cc(OC)c1OC (stereo unspecified) ... Toxic
2. Cc1ccc(-c2cc(C(F)(F)F)nn2-c2ccc(S(N)(=O)=O)cc2)cc1 [CELECOXIB] ... Toxic
3. COc1ccc2c(c1)c(CC(=O)O)c(C)n2C(=O)c1ccc(Cl)cc1 [INDOMETHACIN] ... Toxic
4. CN(C)/C=C/C(=O)c1ccc(Nc2nc(N3CCOCC3)nc(N3CCOCC3)n2)cc1 ... Toxic
5. c1ccc(-n2nccc2-c2ccc(Nc3nc(N4CCOCC4)nc(N4CCOCC4)n3)cc2)cc1 ... Toxic

###

# Tested on: Rattus norvegicus
# assay-procedure: Ulcerogenicity in Wistar albino rat model of carragenan-induced paw edema assessed as hyalinosis and coagulative necrosis of muscular layer in stomach at 50 mg/kg, po by hematoxylin and eosin staining based histopathological analysis
# Type: toxicity, organism-based
# condition-label: in vivo
assay-metric: Activity

1. c1ccc(-n2nccc2-c2ccc(Nc3nc(N4CCOCC4)nc(N4CCOCC4)n3)cc2)cc1 ... Toxic
2. CN(C)/C=C/C(=O)c1ccc(Nc2nc(N3CCOCC3)nc(N3CCOCC3)n2)cc1 ... Toxic
3. COc1ccc2c(c1)c(CC(=O)O)c(C)n2C(=O)c1ccc(Cl)cc1 [INDOMETHACIN] ... Toxic
4. COc1cc(/C=C/C(=O)c2ccc(Nc3nc(N4CCOCC4)nc(N4CCOCC4)n3)cc2)cc(OC)c1OC ... Non-Toxic
5. CS(=O)(=O)c1ccc(-n2nccc2-c2ccc(Nc3nc(N4CCOCC4)nc(N4CCOCC4)n3)cc2)cc1 ... Non-Toxic

###

# test-system: Prostaglandin G/H synthase 1 (Ovis aries)
# Sequence (P05979 whole entry): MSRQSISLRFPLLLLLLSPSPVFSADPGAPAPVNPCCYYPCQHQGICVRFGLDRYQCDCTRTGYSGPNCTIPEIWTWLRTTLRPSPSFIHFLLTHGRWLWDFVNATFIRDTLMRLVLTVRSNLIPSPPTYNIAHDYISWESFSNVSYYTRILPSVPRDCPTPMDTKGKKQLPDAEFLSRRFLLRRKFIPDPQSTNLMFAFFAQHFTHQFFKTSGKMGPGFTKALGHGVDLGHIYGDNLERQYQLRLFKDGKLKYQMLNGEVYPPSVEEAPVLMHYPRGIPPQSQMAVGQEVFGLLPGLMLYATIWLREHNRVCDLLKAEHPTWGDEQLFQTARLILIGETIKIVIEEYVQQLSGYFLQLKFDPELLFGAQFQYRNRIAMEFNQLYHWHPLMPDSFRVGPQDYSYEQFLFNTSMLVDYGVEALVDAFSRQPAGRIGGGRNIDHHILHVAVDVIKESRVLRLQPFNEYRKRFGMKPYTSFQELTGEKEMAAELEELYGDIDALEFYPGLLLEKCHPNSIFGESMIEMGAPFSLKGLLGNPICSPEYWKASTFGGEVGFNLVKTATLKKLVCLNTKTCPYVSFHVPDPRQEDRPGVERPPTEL
IC50 strictly less than 5 µM = rule met. Otherwise rule not met.

1. c1cc(-c2ccc(Nc3nc(N4CCCCC4)nc(N4CCCCC4)n3)cc2)on1 ... rule not met
2. c1ccc(-n2nccc2-c2ccc(Nc3nc(N4CCCCC4)nc(N4CCCCC4)n3)cc2)cc1 ... rule not met
3. CC(=O)c1ccc(Nc2nc(N3CCOCC3)nc(N3CCOCC3)n2)cc1 ... rule not met
4. COc1cc(/C=C/C(=O)c2ccc(Nc3nc(N4CCCCC4)nc(N4CCCCC4)n3)cc2)cc(OC)c1OC ... rule not met
5. CS(=O)(=O)c1ccc(-n2nccc2-c2ccc(Nc3nc(N4CCOCC4)nc(N4CCOCC4)n3)cc2)cc1 ... rule met
6. COc1cc(C2CC(c3ccc(Nc4nc(N5CCOCC5)nc(N5CCOCC5)n4)cc3)=NN2C(C)=O)cc(OC)c1OC (stereo not drawn) ... rule not met
7. COc1cc(C2CC(c3ccc(Nc4nc(N5CCCCC5)nc(N5CCCCC5)n4)cc3)=NN2C(C)=O)cc(OC)c1OC (stereo not drawn) ... rule met

###

# Test system: Rattus norvegicus
# assay-procedure: Ulcerogenicity in Wistar albino rat model of carragenan-induced paw edema assessed as degenrative changes with necrotic changes in gastric mucosa at 50 mg/kg, po by hematoxylin and eosin staining based histopathological analysis
# Assay type: toxicity, organism-based
# condition-label: in vivo
assay-metric: Activity

1) COc1cc(/C=C/C(=O)c2ccc(Nc3nc(N4CCOCC4)nc(N4CCOCC4)n3)cc2)cc(OC)c1OC ... Non-Toxic
2) Cc1ccc(-c2cc(C(F)(F)F)nn2-c2ccc(S(N)(=O)=O)cc2)cc1 ... Toxic
3) CN(C)/C=C/C(=O)c1ccc(Nc2nc(N3CCOCC3)nc(N3CCOCC3)n2)cc1 ... Toxic
4) CS(=O)(=O)c1ccc(-n2nccc2-c2ccc(Nc3nc(N4CCOCC4)nc(N4CCOCC4)n3)cc2)cc1 ... Non-Toxic
5) COc1cc(C2CC(c3ccc(Nc4nc(N5CCCCC5)nc(N5CCCCC5)n4)cc3)=NN2C(C)=O)cc(OC)c1OC (configuration not stated) ... Toxic
6) COc1ccc2c(c1)c(CC(=O)O)c(C)n2C(=O)c1ccc(Cl)cc1 ... Toxic
7) c1ccc(-n2nccc2-c2ccc(Nc3nc(N4CCOCC4)nc(N4CCOCC4)n3)cc2)cc1 ... Toxic
